Target entity: HLA-A*6802 (human)
Assay context: remark: other sources report otherwise
pIC50: −log10 of the molar value.
Endpoint: pIC50

A. LLSNDMCARV [peptide 1418.53, HuK2.178.V10]
B. KVTEFMLCV [peptide 1418.21, HuK2.191.V9]
Given the listed records, identify the one among A and B with higher pIC50. Answer format: the label of the selected item. A
(A: 5.77, B: 5.18)

These measurements were taken from patent US20040037843A1.
